biological target: HIF1A; assay: HeLa, 100 nM transfected, 24 h, mean of 3; conditions: ASO
Bases are written 5' to 3'; sugars and linkages follow in the same order, as letters with counts (s phosphorothioate, o phosphodiester; PS: all linkages phosphorothioate). C may stand for cytosine or 5-methylcytosine; the collection does not tell. l = locked nucleic acid (LNA); d = 2'-deoxy (DNA)
Measured caspase activation (% of PBS control), listed per entry for reference.
Number only, no unit.

Answered examples (2):
>  <seq text>
GTTACTGCCTTCT (sugars l1 d1 l1 d8 l2, PS)

>  <measured on>
HIF1A

>  <caspase activation (% of PBS control)>
123

$$$$
>  <seq text>
TGGCAAGCATCCTGTA (sugars l1 d1 l2 d9 l3, PS)

>  <measured on>
HIF1A

>  <caspase activation (% of PBS control)>
479

$$$$

What does the record list as caspase activation (% of PBS control) for GCAAGCATCCTGT (sugars l1 d1 l2 d8 l1, PS) ?
191

What does the record list as caspase activation (% of PBS control) for GTTACTGCCTTCTTAC (sugars l1 d11 l1 d2 l1, PS) ?
115

* * *

Measured caspase activation (% of PBS control), listed per entry for reference.
molecular target: HIF1A; test: HeLa, 100 nM transfected, 24 h, mean of 3; settings: ASO
Bases are written 5' to 3'; sugars and linkages follow in the same order, as letters with counts (s phosphorothioate, o phosphodiester; PS: all linkages phosphorothioate). C may stand for cytosine or 5-methylcytosine; the collection does not tell. l = locked nucleic acid (LNA); d = 2'-deoxy (DNA)
Number only, no unit.

Answered examples (8):
>  <seq text>
CAAGCATCCTGTA (sugars l4 d6 l3, PS)

>  <caspase activation (% of PBS control)>
171

$$$$
>  <seq text>
GTTACTGCCTTCTTAC (sugars l1 d10 l3 d1 l1, PS)

>  <caspase activation (% of PBS control)>
261

$$$$
>  <seq text>
GTTACTGCCTTCTTAC (sugars ldldddddddddlldl, PS)

>  <caspase activation (% of PBS control)>
165

$$$$
>  <seq text>
TGGCAAGCATCCTGTA (sugars l4 d7 l1 d2 l2, PS)

>  <caspase activation (% of PBS control)>
323

$$$$
>  <seq text>
TGGCAAGCATCCTGTA (sugars llddlddddddllldl, PS)

>  <caspase activation (% of PBS control)>
397

$$$$
>  <seq text>
TGGCAAGCATCCTGTA (sugars ldlldddddddldldl, PS)

>  <caspase activation (% of PBS control)>
400

$$$$
>  <seq text>
CAAGCATCCTGTA (sugars l2 d1 l1 d6 l3, PS)

>  <caspase activation (% of PBS control)>
119

$$$$
>  <seq text>
GTTACTGCCTTCTTAC (sugars lddllddddddldlll, PS)

>  <caspase activation (% of PBS control)>
237

$$$$

Form field - read-out: caspase activation (% of PBS control); system: HIF1A; submitted item: GTTACTGCCTTCTTAC (sugars l2 d2 l1 d10 l1, PS)
158

Form field - read-out: caspase activation (% of PBS control); system: HIF1A; submitted item: GTTACTGCCTTCTTAC (sugars lldlldddddddlldl, PS)
363

Form field - read-out: caspase activation (% of PBS control); system: HIF1A; submitted item: CAAGCATCCTGTA (sugars l3 d7 l1 d1 l1, PS)
302

Form field - read-out: caspase activation (% of PBS control); system: HIF1A; submitted item: GTTACTGCCTTCTTAC (sugars l3 d8 l1 d2 l2, PS)
204
